Test system: Human immunodeficiency virus 1
assay_summary: Effective concentration of compound required to protect human T-lymphocytic cells against the cytopathogenicity of HIV-1
Type: functional, organism-based
assay_conditions: Human immunodeficiency virus 1

| compound | EC50 |
| --- | --- |
| CCCCCCCCCCNCc1c(O)cc2c(c1O)-c1cc(ccc1O)[C@H]1NC(=O)[C@@H]3NC(=O)[C@H](CC(N)=O)NC(=O)[C@H](NC(=O)[C@@H](CC(C)C)NC)[C@H](O)c4ccc(c(Cl)c4)Oc4cc3cc(c4O[C@@H]3O[C@H](CO)[C@@H](O)[C@H](O)[C@H]3O[C@H]3C[C@](C)(N)[C@@H](O)[C@H](C)O3)Oc3ccc(cc3)[C@@H](O[C@H]3C[C@](C)(N)[C@@H](O)[C@H](C)O3)[C@H](NC1=O)C(=O)N[C@@H]2C(=O)O | > 20 µM |
| CN(C)CCCNC(=O)[C@@H]1NC(=O)C2NC(=O)C(NC(=O)C3NC(=O)C4NC(=O)C(Cc5ccc(c(Cl)c5)Oc5cc3cc(c5O)Oc3ccc(cc3Cl)C2O)NC(=O)C(N)c2ccc(O)c(c2)Oc2cc(O)cc4c2)c2ccc(O)c(c2)-c2c1cc(O)c(CNC1C3CC4CC(C3)CC1C4)c2O (stereo partly drawn) | 2.5 µM |
| CN[C@H](CC(C)C)C(=O)N[C@H]1C(=O)N[C@@H](CC(N)=O)C(=O)N[C@H]2C(=O)N[C@H]3C(=O)N[C@H](C(=O)N[C@H](C(=O)O)c4cc(O)cc(O)c4-c4cc3ccc4O)[C@H](O[C@H]3C[C@](C)(N)[C@@H](O)[C@H](C)O3)c3ccc(cc3)Oc3cc2cc(c3O[C@@H]2O[C@H](CO)[C@@H](O)[C@H](O)[C@H]2O[C@H]2C[C@](C)(N)[C@@H](O)[C@H](C)O2)Oc2ccc(cc2Cl)[C@H]1O | > 250 µM |

###

System: Human immunodeficiency virus 1
assay_summary: Effective concentration of compound required to protect human T-lymphocytic cells against the cytopathogenicity of HIV-1
Format: functional, organism-based
assay_conditions: Human immunodeficiency virus 1
We begin with a simple list: items and their reported EC50.

| compound | EC50 |
| --- | --- |
| CN[C@H](CC(C)C)C(=O)N[C@H]1C(=O)N[C@@H](CC(N)=O)C(=O)N[C@H]2C(=O)N[C@H]3C(=O)N[C@H](C(=O)N[C@H](C(=O)NCc4ccc(-c5ccccc5)cc4)c4cc(O)cc(O)c4-c4cc3ccc4O)[C@H](O[C@H]3C[C@](C)(N)[C@@H](O)[C@H](C)O3)c3ccc(cc3)Oc3cc2cc(c3O[C@@H]2O[C@H](CO)[C@@H](O)[C@H](O)[C@H]2O[C@H]2C[C@](C)(N)[C@@H](O)[C@H](C)O2)Oc2ccc(cc2Cl)[C@H]1O | > 10 µM |
| CNC1C(=O)NC2Cc3ccc(cc3)Oc3cc4cc(c3O[C@@H]3O[C@@H](C(=O)O)[C@@H](O)[C@H](O)[C@@H]3N)Oc3ccc(cc3Cl)C(O)C3NC(=O)C(NC(=O)C4NC(=O)C(NC2=O)c2cc(cc(O)c2Cl)Oc2cc1ccc2O)c1ccc(O)c(c1)-c1c(O[C@H]2O[C@H](CO)[C@@H](O)[C@@H](O)[C@@H]2O)cc(O)cc1[C@H](C(=O)O)NC3=O (stereo partly drawn) | > 250 µM |
| CCCCCCCCCCNC(=O)[C@H]1NC(=O)[C@H]2NC(=O)[C@H](NC(=O)[C@@H]3NC(=O)[C@H](CC(N)=O)NC(=O)[C@H](NC(=O)[C@@H](CC(C)C)NC)[C@H](O)c4ccc(c(Cl)c4)Oc4cc3cc(c4O[C@@H]3O[C@H](CO)[C@@H](O)[C@H](O)[C@H]3O[C@H]3C[C@](C)(N)C(O)[C@H](C)O3)Oc3ccc(cc3Cl)[C@H]2O)c2ccc(O)c(c2)-c2c(O)cc(O)cc21 (stereo partly drawn) | > 10 µM |
